system: P388 mouse leukemia cells; assay: Cytotoxicity against P388 mouse leukemia cells (crystal violet staining); assay type: cell-based; conditions: 72 h, 3 days incubation, cell number reduced to 50% of control
QUANTITY_KIND: log10 IC50 (log10 of the value in ng/mL)
// units: ng/mL (pre-log); metric: IC50; scale: log10

Supply recorded log10 IC50 for CNCCNc1nc2cc(O)ccc2c2c1C(=O)c1ccccc1-2.Cl.Cl.Cl here. -0.18

Supply recorded log10 IC50 for CN(C)CCNc1nc2cc3c(cc2c2c1C(=O)c1ccccc1-2)OCO3 here. 1.11

Supply recorded log10 IC50 for CN(C)CCNc1nc2cc(O)ccc2c2c1C(=O)c1cc(O)ccc1-2 here. 0.04

Supply recorded log10 IC50 for O=C1c2ccccc2-c2c1c(NCCNCCO)nc1cc(O)ccc21 here. -0.02

Supply recorded log10 IC50 for CN(C)CCNc1nc2ccccc2c2c1C(=O)c1cc(O)ccc1-2 here. 0.11

Supply recorded log10 IC50 for CN(C)CCOc1nc2cc(O)ccc2c2c1C(=O)c1ccccc1-2 here. -0.52

Supply recorded log10 IC50 for CN(C)CCNc1nc2cc(F)ccc2c2c1C(=O)c1ccccc1-2.Cl.Cl here. 0.68

Recorded values, source patent US5733918A.
